# MEC per entry
# system.tested: recombinant guanylate cyclase reporter cell line (Rattus norvegicus, UniProt P19686+P20595)
# Construct: expressed in transfected cells
# Sequence (P20595 whole entry): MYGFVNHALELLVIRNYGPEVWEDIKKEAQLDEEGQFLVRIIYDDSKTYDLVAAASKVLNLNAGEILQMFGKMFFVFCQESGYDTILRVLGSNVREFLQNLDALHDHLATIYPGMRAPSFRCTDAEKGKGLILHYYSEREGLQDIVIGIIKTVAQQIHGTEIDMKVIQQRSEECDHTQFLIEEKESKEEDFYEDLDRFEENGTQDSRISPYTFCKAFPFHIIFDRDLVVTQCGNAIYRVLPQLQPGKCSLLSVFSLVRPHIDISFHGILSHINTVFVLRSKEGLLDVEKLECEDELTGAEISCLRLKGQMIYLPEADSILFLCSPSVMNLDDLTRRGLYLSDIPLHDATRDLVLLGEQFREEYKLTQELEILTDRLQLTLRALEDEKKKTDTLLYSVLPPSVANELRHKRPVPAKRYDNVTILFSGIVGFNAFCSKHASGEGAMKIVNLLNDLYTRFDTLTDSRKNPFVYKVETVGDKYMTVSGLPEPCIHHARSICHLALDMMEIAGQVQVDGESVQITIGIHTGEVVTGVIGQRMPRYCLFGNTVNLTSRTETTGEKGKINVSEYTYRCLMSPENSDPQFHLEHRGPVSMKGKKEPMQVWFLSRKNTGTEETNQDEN
# Sequence (P19686 whole entry): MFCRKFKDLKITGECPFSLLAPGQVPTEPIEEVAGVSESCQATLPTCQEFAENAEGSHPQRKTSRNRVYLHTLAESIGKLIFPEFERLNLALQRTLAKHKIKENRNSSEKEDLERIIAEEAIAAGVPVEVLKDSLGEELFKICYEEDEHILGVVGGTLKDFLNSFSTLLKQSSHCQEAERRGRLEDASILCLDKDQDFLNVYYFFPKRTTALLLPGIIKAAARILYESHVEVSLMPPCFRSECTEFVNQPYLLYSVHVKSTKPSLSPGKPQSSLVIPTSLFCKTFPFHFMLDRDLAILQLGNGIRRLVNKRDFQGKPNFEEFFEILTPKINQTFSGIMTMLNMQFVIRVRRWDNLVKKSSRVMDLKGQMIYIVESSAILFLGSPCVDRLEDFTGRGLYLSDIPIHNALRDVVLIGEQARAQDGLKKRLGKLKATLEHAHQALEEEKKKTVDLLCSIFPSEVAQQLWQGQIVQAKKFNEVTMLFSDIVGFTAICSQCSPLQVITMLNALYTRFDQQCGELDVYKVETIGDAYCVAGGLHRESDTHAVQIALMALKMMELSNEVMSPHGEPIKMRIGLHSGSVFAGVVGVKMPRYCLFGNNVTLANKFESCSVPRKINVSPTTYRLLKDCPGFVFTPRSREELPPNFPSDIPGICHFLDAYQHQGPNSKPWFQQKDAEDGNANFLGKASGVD
# assay.info: B-2. Action on recombinant guanylate cyclase reporter cell line
# Format: cell-based
# experimental.conditions: MEC = minimal effective concentration; in some cases mean values from individual determinations

{"molecule": "Cc1nc2c(OCc3c(F)cccc3F)cccn2c1C(=O)NCCC(C)(C)N", "MEC / µM": 1.00}
{"molecule": "Cc1nc2c(OCc3c(F)cccc3F)cc(Cl)cn2c1C(=O)NCC1CCCCN1 (single isomer, unassigned; ent-6) [Example 190]", "MEC / µM": 1.00}
{"molecule": "Cc1cc(OCc2c(F)cccc2F)c2nc(C)c(C(=O)NC3CCC3(C)N)n2c1 (racemic) [Example 331]", "MEC / µM": 0.30}
{"molecule": "CCCC(C)(N)CNC(=O)c1c(C)nc2c(OCc3c(F)cccc3F)cc(Cl)cn12 (racemic) [Example 244]", "MEC / µM": 0.30}

###

# log10 MEC per entry
# system.tested: recombinant guanylate cyclase reporter cell line (Rattus norvegicus, UniProt P19686+P20595)
# Construct: expressed in transfected cells
# assay.info: B-2. Action on recombinant guanylate cyclase reporter cell line
# Type: cell-based
# experimental.conditions: MEC = minimal effective concentration; in some cases mean values from individual determinations
Structures can show the parent of a compound that is named as a salt.
recorded.endpoint: log10 MEC (log10 of the value in µM)

{"compound": "Cc1cc(OCc2c(F)cccc2F)c2nc(C)c(C(=O)NC3CCCC(N)C3)n2c1 (centres unmarked) [Example 160]", "reported.value": 0.00}
{"compound": "Cc1cc(OCc2c(F)cccc2F)c2nc(C)c(C(=O)NCC(N)C#N)n2c1 (single isomer, unassigned; enantiomer b) [Example 402]", "reported.value": -0.52}
{"compound": "Cc1nc2c(OCc3c(F)cccc3F)cc(Cl)cn2c1C(=O)NCC(N)CC(F)(F)F (single isomer, unassigned) [Example 193]", "reported.value": 0.00}
{"compound": "Cc1cc(OCc2c(F)cccc2F)c2nc(C)c(C(=O)NCC(C)(N)CC(C)C)n2c1 (racemic) [Example 218]", "reported.value": -1.00}
{"compound": "Cc1cc(OCc2c(F)cccc2F)c2nc(C)c(C(=O)NCCN3CC(N4CCCC4)C3)n2c1 [Example 162]", "reported.value": 0.48}
{"compound": "Cc1cc(OCc2c(F)cccc2F)c2nc(C)c(C(=O)NCC(C)(N)C3CC3)n2c1 (single isomer, unassigned; enantiomer b) [Example 261]", "reported.value": -1.00}
{"compound": "COCC(C)(N)CNC(=O)c1c(C)nc2c(OCc3c(F)cccc3F)cc(C)cn12 (single isomer, unassigned) [Example 198]", "reported.value": -0.52}
{"compound": "C=Cc1cccc(C(CN)NC(=O)c2c(C)nc3c(OCc4c(F)cccc4F)cc(C)cn23)c1 (racemic) [Example 385]", "reported.value": 0.00}
{"compound": "CCCC(C)(N)CNC(=O)c1c(C)nc2c(OCc3cccc(F)c3F)cc(C)cn12 (racemic) [Example 303]", "reported.value": -0.70}
{"compound": "Cc1nc2c(OCc3c(F)cccc3F)cccn2c1C(=O)NC(C)[C@H](C)N (single isomer, unassigned) [Example 174]", "reported.value": -0.52}
{"compound": "Cc1cc(OCc2c(F)cccc2F)c2nc(C)c(C(=O)NC34CC5CC(CC(N)(C5)C3)C4)n2c1 [Example 365, Formate]", "reported.value": 0.00}
{"compound": "Cc1cc(OCc2c(F)cccc2F)c2nc(C)c(C(=O)NC3CCC3N)n2c1 (single isomer, unassigned; enantiomer a) [Example 328]", "reported.value": 0.48}
{"compound": "Cc1nc2c(OCc3c(F)cccc3F)cccn2c1C(=O)NCC(C)(C)N(C)C [Example 145]", "reported.value": 0.48}
{"compound": "Cc1cc(OCc2c(F)cccc2F)c2nc(C)c(C(=O)NC(CN)c3csc4ccccc34)n2c1 (racemic) [Example 389]", "reported.value": 0.00}
